# key: entry, value: melting point
Where a name gives a salt, the structure may show the parent alone.
Form field: result (number plus unit)

COc1ccc(CC(=O)N2CCc3cccc(N4CCN(C)CC4)c3C2)cc1 (as salt: salt) = 63 °C
CN1CCN(c2cccc3c2CN(C(=O)Cc2ccc(Cl)c(Cl)c2)CC3)CC1 = 66 °C
CN1CCN(c2cccc3c2CN(C(=O)CC2CC2)CC3)CC1 (as salt: salt) = 66 °C
CN1CCN(c2cccc3c2CN(C(=O)Cc2ccc(Cl)cc2Cl)CC3)CC1 (as salt: salt) = 85 °C

INPUT: What measured melting point goes with CN1CCN(c2cccc3c2CN(C(=O)c2ccc(Cl)cc2)CC3)CC1 (as salt: salt) ?
OUTPUT: 52 °C

----------
melting point overview
Counter-ions that a name gives are not always drawn.

CN1CCN(c2cccc3c2CN(C(=O)c2ccc(N4CCOCC4)cc2)CC3)CC1 = 129 °C (dec.)
CN1CCN(c2cccc3c2CN(C(=O)Cc2ccccc2Cl)CC3)CC1 (as salt: salt) = 54 °C
CN1CCN(c2cccc3c2CN(C(=O)CCc2ccc(Cl)cc2)CC3)CC1 (as salt: salt) = 84 °C

INPUT: Requested read-out: melting point. Entry: CN1CCN(c2cccc3c2CN(C(=O)Cc2cccnc2)CC3)CC1 (as salt: salt)
OUTPUT: 56 °C
